- Experimental Protocol: yeast display, Sf9 membrane polyspecificity reagent, FACS + sequencing; frameworks hold sequencing errors
Metric Name: polyreactivity (PSR sort gate)

- Seq String: "QVQLVESGGGLVQAGGSLRLSCAASGSTFEYYAMGWYRQAPGKERELVATITFGGGSTYYADSVKGRFTISRDNAKNTVYLQMNSLKPEDTAVYYCAADSGYLGIYGDEYSWGQGTQVTVSS"
  Result: "low polyreactivity"
- Seq String: "QVQLVESGGRLVQAGGSLRLSCAASGSTFWESVLGWNRQSPGKDRELVAAITTNDDSTYYADSVKGRFTISRDNAKNTVYLQMNSLKPEDTAVYYCNAVQITGQFDYWGQGTQVTVSS"
  Result: "low polyreactivity"
- Seq String: "QVQLVESGGGLVQAGGSLRLSCAASGRTFSGYAMGWYRQAPGKEREFVAAISRSGGSTYYADSVKGRFTISRDNAKNTVYLQMNSLKPEDIAVYYCAAQIWYSKRLAYKAYDYWGQGTQVTVSS"
  Result: "high polyreactivity"
- Seq String: "QVQLVESGGGLVQAGGSLRLSCAASGRTFGRYAMGWYRQAPGKERELVAAISTSGGSTYYADSVKGRFTISRDNAKNTVYLQMNSLKPEDTAVYYCAATIGRRSYNQMYYWGQGTQVTVSS"
  Result: "high polyreactivity"
- Seq String: "QVQLVESGGGLVQAGGSLRLSCAASGSIFGGYAMGWYRQAPGKERELVAAISRSGGRTYYADSVKGRFTISRDNAKNTVYLQMNSLKPEDTAVYYCNRVTGYDSGDGYWGQGTQVTVSS"
  Result: "high polyreactivity"

* * *

- Experimental Protocol: yeast display, Sf9 membrane polyspecificity reagent, FACS + sequencing; frameworks hold sequencing errors

- Seq String: "QVQLVESGGGLVQAGGSLRLSCAASGIIFYPYAMGVYRKAPGKEREMVADITSGGGTNYADSVKGRFTISRDYAKNTVYLKMNSLKPEDTAVYYCAAEVRGYHWGTYYEFYYWGQGTQVTVSS"
  polyreactivity (PSR sort gate): "low polyreactivity"
- Seq String: "QVQLVESGGGLVQAGGSLRLSCAASGRIFVWYAMGWYRQATGKERELVAAITRGGSTNYADSVKGRFTISRDNAKNTVYLQMNSLKPEDTAVYYCAARSPYRTRNDYWGQGTQVTVSS"
  polyreactivity (PSR sort gate): "low polyreactivity"
- Seq String: "QDQLVESGGGLVQEGRILRLISADSGRISRFNAMGWYRPAPGKERELVAAITRGASTYYADSVKGRFTISRDNAKNTVYLEMNSVKPEVTAVYYCAAAPSYSWTSVARYFYWGQGTQVPVSS"
  polyreactivity (PSR sort gate): "high polyreactivity"
- Seq String: "QVQLVESGGGLVQAGGSLRLSCAASGGIYYRYAKGWYRQAPGKERDLVAVISRSGSTYYADSVKGRFTMSRDNAQNTVYLQMNSLKPEDTAVYYCAAYSRCRYGLVPYDYWGQGTQVTVSS"
  polyreactivity (PSR sort gate): "high polyreactivity"
- Seq String: "QVQLVESGGGLVQAGGSLRLSCAASGSIFDANAMGCYRQAPGKERELVAAINWTGGSTYYADSVKGRFTISRDNAKNTVYLQMNSLKPEDTAVYYCAAEWWYPYNPDIYYYWGQGIQVTVSS"
  polyreactivity (PSR sort gate): "high polyreactivity"
- Seq String: "QVQLVESVGGLVQAGGSLRLSCAASGTFSPYAMGWYRQAPGKERELVAVITSNTGRTYADSVKGRFTISRDNAKNSVYLQMNSLKPEDTAVYYCAARSTYRHWYRTGSRFDYWGQGTQVTVSS"
  polyreactivity (PSR sort gate): "low polyreactivity"
- Seq String: "QVQLVESGGGLVQAGGSLRLSCAASGSTFDINTMGWYRQAPGKEREFVAAITDSDDSTYYADSVKGRFTISRDNAKNTVYLQMNSLKPEDTAVYYCAHDYDGYVWDTEYDYWGQGTQVTVSS"
  polyreactivity (PSR sort gate): "low polyreactivity"
- Seq String: "QVQLVESGGGLVQAGGSLRLSCAASGSTFGYYTMGWYSQAPGKEWELVAAITWSGGSTYYADSVKGRFTISRDNAKNTASLQMNSLKPEDTAVYYCNTDQDLVRSYDYWGQGTQVTVSS"
  polyreactivity (PSR sort gate): "low polyreactivity"
- Seq String: "QVQLVETGGGLVQAGGSLRLSCSASRLTFVYYTMGWYRQAPGKERELVAAITSSGGSTYYADSLKGRFTISRDNAKNTVYLQMNSLKPEDTAVSYCNAYWTYEFPSYDYWGPGTQVTVSS"
  polyreactivity (PSR sort gate): "low polyreactivity"
- Seq String: "QVQLVESGGGLVQAGGSLRLSCAASGSIFAAYTMGWYRQAPGKERELVAAISVSTVSTYYADSVKGRFTISRDNAKNTVYLHMNSLKPEDTAVYYCNADATDSYPEKDDHDSWGQGTQVTVSS"
  polyreactivity (PSR sort gate): "low polyreactivity"
- Seq String: "QVQLVESGGGLVQAGGSLRLSCAASGFTFRYYAMGWYRQAPGKERELVAAISKSGGSTYYADSVKGRFTISRDNAKNTVYLQMNSLKPEDTAVYYCAARNWFSYYQIMDYWGQGTQVTVSS"
  polyreactivity (PSR sort gate): "high polyreactivity"

* * *

- Experimental Protocol: yeast display, Sf9 membrane polyspecificity reagent, FACS + sequencing; frameworks hold sequencing errors
Metric Name: polyreactivity (PSR sort gate)

- Seq String: "QVQLVESGGGLVQAGGSLRLSCAASGSIFLSYTMGRYRQAPGKERELVAAITSGGSTKYADSVKGRFTISRDNAKNTVYLQMNSLKPEDTAVYYCNATPYSRLGYWGQGTQVTVSS"
  Result: "high polyreactivity"
- Seq String: "QVQLVESGGGLVQAGGSLRLSCAASGRIFRPNAMGWYRQAPGKERELVATITSDGSTKYADSVKGRFTISRDNAKNTVYLQMNSLKPEDTAVYYCAVRWARRYRYYYWGQGTQVTVSS"
  Result: "high polyreactivity"
- Seq String: "QVQLVESGGGLVQAGGSLRLSCAASGSIFRSNAMGWYRPAPGKERELVAAISRRGGSTYYADSVKGRFTISRDNAKNPVYLQMNSLKPEDTAVYYCAAPTIVSGHDSWGQGTQVTVSS"
  Result: "high polyreactivity"
- Seq String: "QVHLVESAGGLVQAGGSLRLSCDASGRTFYPNAMGWYRQKHGQERELVAGIRSSGESTYYEDSVKGRFTISRDNAKTTVYLQMNSLKQEDTAVYYGIRDLTPSYDFWGQGSQVTVSS"
  Result: "low polyreactivity"
- Seq String: "QVHLVESGGGLVQAGGSLRLSCAASGRIFTRNAMVWYRQAPGKERELVAAISHSGGSTYADSVKGRFTISRDNAKNTVYLQMNSLKPEDTAVYYCAAKYYFEWNSALDYWGQGTQVTVSS"
  Result: "low polyreactivity"
- Seq String: "QVQLVESGGGLVQAGGSLRLSCAASGFIFHRYVMGWSRQAPGKERELVAAISSGGSTNYADSVKGRFTISRDNAKNTVYLQMNSLKPEDTAVYYCAADGFYYRNWGRFRYYYWGQGTQVTVSS"
  Result: "low polyreactivity"
- Seq String: "QVQLVESGGGLVQAGGSLRLSCAASGSIFSSYVMGWYRQAPGKEREVVAAITSRGGSTYYADSVKGRFTISRDNAKNTVYLQMNSLKPEDTAVYYCAKGGTTWYWSGYRSIYFRYDYWGQGTQVTVSS"
  Result: "high polyreactivity"
- Seq String: "QVQLVESGGGLVQAGGSLRLSCAASGIIFEYYTMGWYRQAPGNERELVASITYDGDSTYYADSVKGRFTISRDHAKNTVYLQINSLKPEDTAVYFCAADYYYVYSSFGHYYWGQGTQVTVSS"
  Result: "low polyreactivity"
- Seq String: "QVQLVESGGGLVQAGGSLRLSCAASGSIFTRNALGWYRQAPGKETEFVAAISSSGVSTYYADSVKGRFTISRDNAKNTVYLQMNSLKPEDTAVYDCAARWGTKSGRFEYWGQGTQVTVSW"
  Result: "high polyreactivity"
- Seq String: "QVQLVESGGGFVQAGGSLRLSCAASGCTVRWNAKGWYRQATGKDRELVAAITYSGGSTYYADSVKGRLTISRDIANNTVYLQMNSLNPEDTAVYYCATEGRGYFCYYTDDYWGQGTQVTVSS"
  Result: "high polyreactivity"
- Seq String: "QVQLVESGGGLVQAGGSLRLSCAASGITFADNAMGWYRQAPGKERELVASISKSSGSTYYADSVKGRFTISRDNAKNTVYLQMNSLKPEDTAVYYCATDPYVRRSPSWYDYWGQGTQVTVSS"
  Result: "low polyreactivity"

These entries and their values trace back to the nanobody polyreactivity screen of Harvey et al. (2022).
